Recorded values, source patent US20210145976A1.

- measurement target: CD71 on SK-BR-3 cells (human, UniProt P02786 1-760)
- Sequence (P02786 whole entry): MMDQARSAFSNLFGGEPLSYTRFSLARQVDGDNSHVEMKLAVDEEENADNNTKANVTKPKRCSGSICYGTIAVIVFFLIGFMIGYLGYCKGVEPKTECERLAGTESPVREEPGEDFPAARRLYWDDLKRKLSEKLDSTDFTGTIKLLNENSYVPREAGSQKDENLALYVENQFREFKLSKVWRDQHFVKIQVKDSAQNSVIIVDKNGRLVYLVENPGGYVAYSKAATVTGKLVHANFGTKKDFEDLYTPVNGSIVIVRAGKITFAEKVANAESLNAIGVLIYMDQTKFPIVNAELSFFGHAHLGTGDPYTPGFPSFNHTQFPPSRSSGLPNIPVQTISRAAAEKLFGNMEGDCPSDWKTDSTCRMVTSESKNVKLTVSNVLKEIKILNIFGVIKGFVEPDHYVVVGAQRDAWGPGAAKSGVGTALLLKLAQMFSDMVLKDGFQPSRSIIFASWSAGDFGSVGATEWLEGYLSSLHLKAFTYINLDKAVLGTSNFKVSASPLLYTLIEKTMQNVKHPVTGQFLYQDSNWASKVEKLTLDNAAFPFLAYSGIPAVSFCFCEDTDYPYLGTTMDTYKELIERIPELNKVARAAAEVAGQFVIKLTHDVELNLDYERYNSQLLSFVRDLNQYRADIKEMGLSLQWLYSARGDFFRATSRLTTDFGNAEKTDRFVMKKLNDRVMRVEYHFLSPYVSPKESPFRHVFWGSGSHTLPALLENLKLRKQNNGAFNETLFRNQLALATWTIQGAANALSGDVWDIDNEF
- measurement protocol: cell-based or functional assay
measure: IC50, SKBR-3 cell viability, MMAF conjugate (nM)

SEQ ID NO 39 (designed binder, FN3 domain) MLPAPKNLVVSRVTEDSARLSWTAPDAAFDSFDIDYREWWTLGEAIVLTVPGSERSYDLTGLKPGTEYYVNIQGVKGGLRSYPLSAIFTT: 0.52
SEQ ID NO 57 (designed binder, FN3 domain) MLPAPKNLVVSRVTEDSARLSWTAPDAAFDSFSIKYLEWWQDGEAIVLTVPGSERSYDLTGLKPGTEYYVHIAGVKGGYRSYPLSAIFTT: 3.13
SEQ ID NO 56 (designed binder, FN3 domain) MLPAPKNLVVSRVTEDSARLSWTAPDAAFDSFVIEYFEALEGGEAIVLTVPGSERSYDLTGLKPGTEYFVGIYGVKGGPLSKPLSAIFTT: 0.24
SEQ ID NO 43 (designed binder, FN3 domain) MLPAPKNLVVSRVTEDSARLSWTAPDAAFDSFYIEYYESYPGGEAIVLTVPGSERSYDLTGLKPGTEYDVYIYGVKGGYWSRPLSAIFTT: 0.069
